For each entry below, report its AC50 value.
Target: FAD-linked sulfhydryl oxidase ALR (Homo sapiens)
Sequence (P55789 whole entry): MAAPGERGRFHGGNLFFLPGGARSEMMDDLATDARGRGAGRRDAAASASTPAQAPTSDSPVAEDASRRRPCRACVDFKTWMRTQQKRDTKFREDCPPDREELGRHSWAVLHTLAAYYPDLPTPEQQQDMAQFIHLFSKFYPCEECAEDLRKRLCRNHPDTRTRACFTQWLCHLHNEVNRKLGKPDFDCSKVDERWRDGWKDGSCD
Test: inhibitors of human ALR sulfhydryl oxidase, dose response, biochemical, H2O2 detection, luminescence, cherry-pick (AID 493248)
Active and inactive are the calls of the source. Cut-off read from the data, not from the text of the source: actives have a measured AC50 and inactives only a lower limit.

Entry under test: Cn1cnnc1SCc1ccc(C(=O)N/N=C(\CCC(=O)O)c2ccc(C(C)(C)C)cc2)cc1 . Its AC50 was 0.755 µM (active)

Entry under test: Clc1nnc(N2CCCCC2)c2ccccc12 . Its AC50 was 17.1 µM (active)

Entry under test: COc1cccc(/C=C2\SC(N3CCCC(C)C3)=NC2=O)c1OC (configuration not stated) . Its AC50 was 5.2 µM (active)

Entry under test: COc1ccc(N)cc1NC(=O)CN1CCCC1 . Its AC50 was 7.58 µM (active)

Entry under test: Nc1ccc(-c2nc3cc(N)ccc3s2)cc1 . Its AC50 was 1.43 µM (active)

Entry under test: CC1(C)CC(=O)c2cnn(-c3nc4ccccc4[nH]3)c2C1 . Its AC50 was 14.8 µM (active)

Entry under test: CC(=O)NCCCc1c[nH]c2ccc(Cl)cc12 . Its AC50 was 13.5 µM (active)
